# credit: paper PMC5540273

Tested on: RSK3(Kin.Dom.1-N-terminal)
Construct: gene RPS6KA2
REPORTED_CONDITIONS: concentration: 1 μM, replicates: in singlicate; n = 1;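 further: KINOMEscan kinase panel screen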
# %Inh per entry
Respond with the figure and its unit, in that order.

The examples below pair each entry with its known result.
Cc1ccc(NC(=O)Nc2ccc(Cl)cc2)cc1-c1ccc(C(=O)Nc2ccncc2)cc1
15%
CNCc1ccc2nc(NC(=O)c3ccc(C(C)(C)C)cc3)cn2c1
1%
Nc1cccc(-c2ccc3c(N)n[nH]c3c2)n1
6%

Attention now shifts to the item below.
Notebook: COc1ccc(CSc2nnc(-c3ccc4c(c3)CCO4)o2)cc1 , %Inh read as 0%

---

System: ASK1
Construct: gene MAP3K5
REPORTED_CONDITIONS: concentration: 1 μM, replicates: in singlicate; n = 1
PARAMETER: %Inh (%)
Respond numerically; units are % and should not be typed.

The examples below pair each entry with its known result.
Cc1ccc(NC(=O)Nc2ccc(Cl)cc2)cc1-c1ccc(C(=O)Nc2ccncc2)cc1 [GSK1398472]
11
Cc1nccc(-c2c(-c3ccc(F)cc3)ncn2CCCN2CCOCC2)n1.Cl [SB-282975]
7
COc1ccc(CSc2nnc(-c3ccc4nccn4c3)o2)cc1C(F)(F)F
0
Cc1ccccc1Cn1ccn2c(=O)cc(N3CCOCC3)nc12 [GSK2269905]
0
CC[C@@H]1CO[C@H](C(=O)Nc2ccccc2)CN1c1cc(-c2ccc3c(N)n[nH]c3c2)nc(NC)n1 [GSK2376236]
4

Attention now shifts to the item below.
Notebook: Fc1ccc(-c2nc[nH]c2-c2ccncc2)cc1 [SB-217360] , %Inh read as 0

---

Test system: JAK2(JH1domain-catalytic)
REPORTED_CONDITIONS: concentration: 1 μM, replicates: in singlicate; n = 1
# %Inh per entry
Respond numerically; units are % and should not be typed.

Fc1ccc(-c2nn3cccc(F)c3c2-c2ccncc2)cc1 [GW475620]
17
COc1ccc(Nc2nccc(NCCNC(=O)Nc3cc(C)ccc3C)n2)cc1 [GSK1379899]
16
COc1cccc(CNC(=O)NC2CCN(c3ccnc(Nc4ccc(F)cc4)n3)C2)c1 (stereo not shown) [GSK1379723]
6
Cl.Cl.Cl.N#Cc1ccc(CCNc2nccc(-c3cccc(CN4CCNCC4)c3)n2)cc1 [GSK2137462]
0
Cc1ccc(NC(=O)Nc2ccccc2F)cc1-c1ccc(C(=O)Nc2ccncc2)cc1 [GSK1398477]
12

Let me check: CC(=O)c1c(C)c2cnc(Nc3ccn(C)n3)nc2n(C2CCCC2)c1=O , system JAK2(JH1domain-catalytic), measured %Inh is 0

Let me check: Cn1cncc1-c1cc2c(Nc3ccc(OCc4ccccc4)cc3)ncnc2cn1 [GW281179] , system JAK2(JH1domain-catalytic), measured %Inh is 4

Let me check: O=C1NC(=O)C(c2ccc(Cl)cc2)=C1Nc1cccc(Cl)c1 [SB-317651] , system JAK2(JH1domain-catalytic), measured %Inh is 11

Let me check: COc1ccc(Nc2nccc(N3CCC(NC(=O)C(C)c4ccc(Cl)cc4)CC3)n2)cc1 (stereo not shown) [GSK1379812] , system JAK2(JH1domain-catalytic), measured %Inh is 0

Let me check: Cc1ccc(NC(=O)Nc2ccc(Cl)c(C(F)(F)F)c2)cc1-c1ccc(C(=O)Nc2ccncc2)cc1 [GSK1398470] , system JAK2(JH1domain-catalytic), measured %Inh is 0

Let me check: Fc1ccc(-c2nc3n(c2-c2ccncc2)CCS3)cc1 [GI98581] , system JAK2(JH1domain-catalytic), measured %Inh is 0

Let me check: O=C(Nc1n[nH]c2cc(-c3ccsc3)ccc12)C1CC1 [SB-732932] , system JAK2(JH1domain-catalytic), measured %Inh is 8

Let me check: Nc1nccc(-c2c(-c3ccc(F)cc3)ncn2C2CCN(Cc3ccccc3)CC2)n1 [SB-219980] , system JAK2(JH1domain-catalytic), measured %Inh is 0

Let me check: CC[C@@H]1CO[C@H](C(=O)Nc2ccccc2)CN1c1cc(-c2ccc3c(N)n[nH]c3c2)nc(NC)n1 [GSK2376236] , system JAK2(JH1domain-catalytic), measured %Inh is 0

Let me check: Cn1cnc2c(N)ncnc21 [SKF-97623] , system JAK2(JH1domain-catalytic), measured %Inh is 0

Let me check: Cc1ccccc1Cn1ccn2c(=O)cc(N3CCOCC3)nc12 [GSK2269905] , system JAK2(JH1domain-catalytic), measured %Inh is 0

Let me check: COc1cccc(C2=C(Nc3cc(Cl)c(O)c(Cl)c3)C(=O)NC2=O)c1 [SB-390767] , system JAK2(JH1domain-catalytic), measured %Inh is 40

---

Tested on: HIPK4
REPORTED_CONDITIONS: concentration: 1 μM, replicates: in singlicate; n = 1
# %Inh per entry
Respond numerically; units are % and should not be typed.

The examples below pair each entry with its known result.
COc1ccc(Nc2nccc(N3CCC(NC(=O)C(C)c4ccc(Cl)cc4)C3)n2)cc1 (stereo not drawn)
9
Cc1ccc(NC(=O)c2ccc(Cl)cc2)cc1-c1ccc(C(=O)Nc2ccncc2)cc1
0
O=C(Nc1n[nH]c2nc(-c3cccs3)c(Br)cc12)C1CCCC1
4
CS(=O)(=O)CCNCc1nc(-c2ccc3ncnc(Nc4ccc5c(cnn5Cc5ccccc5)c4)c3c2)cs1.Cl.Cl
0
COc1ccc(Nc2nccc(NCCNC(=O)Nc3cc(C)ccc3C)n2)cc1
0

Attention now shifts to the item below.
Notebook: Nc1ncnc2occ(-c3ccc4c(c3)CCN4C(=O)Cc3cc(F)ccc3F)c12 , %Inh read as 0

---

Tested on: HASPIN
Construct: gene GSG2
REPORTED_CONDITIONS: concentration: 1 μM, replicates: in singlicate; n = 1
PARAMETER: %Inh (%)
Respond numerically; units are % and should not be typed.

The examples below pair each entry with its known result.
CS(=O)(=O)CCNCc1nc(-c2ccc3ncnc(Nc4ccc5c(cnn5Cc5ccccc5)c4)c3c2)cs1.Cl.Cl
18
O=C(Nc1n[nH]c2nc(-c3ccco3)c(Br)cc12)C1CCN(Cc2ccccc2)C1.O=C(O)[C@H](O)[C@@H](O)C(=O)O (stereo not drawn)
0
CNc1nc(-c2ccc3c(N)n[nH]c3c2)cc(N2C[C@@H](C(=O)NC3CCCCC3)OC[C@H]2C)n1
30
Cc1cccc2c(-c3ccncn3)c(-c3ccc(F)cc3)nn12
21
CC(=O)c1cccc(NC(=O)NC2CCN(c3ccnc(Nc4ccc(F)cc4)n3)C2)c1 (stereo not drawn)
26

Attention now shifts to the item below.
Notebook: O=C(Nc1n[nH]c2nc(-c3cccs3)c(Br)cc12)C1CCCC1 , %Inh read as 0

---

Test system: MAP4K5
REPORTED_CONDITIONS: concentration: 1 μM, replicates: in singlicate; n = 1
PARAMETER: %Inh (%)
Respond numerically; units are % and should not be typed.

The examples below pair each entry with its known result.
Cl.Cl.Cl.N#Cc1ccc(CCNc2nccc(-c3cccc(CN4CCNCC4)c3)n2)cc1 [GSK2137462]
4
COc1ccc(CSc2nnc(-c3ccc4nccn4c3)o2)cc1C(F)(F)F
3
Fc1ccc(-c2nc3n(c2-c2ccncc2)CCS3)cc1 [GI98581]
11
Cc1ccccc1Cn1ccn2c(=O)cc(N3CCOCC3)nc12 [GSK2269905]
0

Notebook: CC[C@@H]1CO[C@H](C(=O)Nc2ccccc2)CN1c1cc(-c2ccc3c(N)n[nH]c3c2)nc(NC)n1 [GSK2376236] , %Inh read as 0

Notebook: CC(C)c1ccc(O)cc1Nc1ccnc2ccc(C(F)(F)F)cc12 [GW482059] , %Inh read as 37

Notebook: COC(=O)C(Cc1ccccc1)NC(=O)NC1CCN(c2ccnc(Nc3ccc(F)cc3)n2)C1 (stereo not drawn) [GSK1379714] , %Inh read as 3

Notebook: COc1nccc(-c2c(-c3ccc(F)cc3)ncn2CCCN2CCOCC2)n1 [SB-282852] , %Inh read as 0

Notebook: O=C1NC(=O)C(c2ccc(Cl)cc2)=C1Nc1ccc(O)cc1 [SB-340867] , %Inh read as 0

---

System: MLCK
Construct: gene MYLK3
REPORTED_CONDITIONS: concentration: 1 μM, replicates: in singlicate; n = 1
PARAMETER: %Inh

The examples below pair each entry with its known result.
CC(C)c1ccc(O)cc1Nc1ccnc2ccc(C(F)(F)F)cc12
0%
COc1ccc(Nc2nccc(N3CCC(NC(=O)c4cc5ccccc5s4)C3)n2)cc1 (stereo not shown)
0%
O=C1NC(=O)C(c2ccc(Cl)cc2)=C1Nc1ccc(O)cc1
0%
CS(=O)(=O)Cc1ccc(Nc2nccc(-c3c(-c4cccc(NC(=O)C5CCCCC5)c4)nn4ncccc34)n2)cc1
3%

Notebook: Cc1ccccc1-c1cc(-c2c[nH]nc2-c2ccccn2)ccn1 , %Inh read as 0%

Notebook: CC[C@@H]1CO[C@H](C(=O)Nc2ccccc2)CN1c1cc(-c2ccc3c(N)n[nH]c3c2)nc(NC)n1 , %Inh read as 0%

Notebook: Cc1ccc(NC(=O)Nc2ccc(Cl)c(C(F)(F)F)c2)cc1-c1ccc(C(=O)Nc2ccncc2)cc1 , %Inh read as 0%
